System: LXRb:RXRa (NR concentration 270 nM, RXRa partner concentration 90 nM)
protocol: PBM binding z-score (relative to random genomic background probes); higher = stronger binding; sequences stand for … in GC…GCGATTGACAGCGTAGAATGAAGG
Please respond with reported PBM binding z-score for every item in the list.
Give bare numbers.

Below are worked cases with known answers.
[[record]]
residue_sequence = "TCAGACAGATGAAGGTAACTCAGGTACGCAGTCG"
observed_property = "PBM binding z-score"
measured_value = 0.763

[[record]]
residue_sequence = "TCTGGTAGATCAACAGGAGGTTAAGAAAGATCGA"
observed_property = "PBM binding z-score"
measured_value = 0.782

[[record]]
residue_sequence = "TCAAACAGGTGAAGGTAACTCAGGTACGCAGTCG"
observed_property = "PBM binding z-score"
measured_value = 1.22

[[record]]
residue_sequence = "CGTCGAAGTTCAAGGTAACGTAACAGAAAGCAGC"
observed_property = "PBM binding z-score"
measured_value = 1.38


State the recorded PBM binding z-score for every item in the following list.
1. ATATGTAGGTTACATCCGGGACATTCAGGCTATG
2. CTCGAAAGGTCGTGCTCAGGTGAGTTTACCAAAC
3. GATACAGGGTCAAGGCCAGAGTTCGCGTATTGAT
4. CGTCCATGGTCAAGGTCAGTGAAAGAGACTCGAA

1: 1.11; 2: 3.31; 3: 3.72; 4: 1.6
